# Assay Target: Glucocorticoid Receptor (GR) (Homo sapiens)
# Construct: purchased Invitrogen P2816
# Experiment Summary: GR receptor competitor assay by fluorescence polarization (Invitrogen GR competitor assay kit, cat No. P2816)
# Test Settings: 20 μM test compound solution, 10 μL per well plus 5 μL 4×GS1 and 5 μL 4×GR solution; recombinant human GR; 2 to 4 hours at room temperature; a ratio of 100% or more is indicated by 100%; read-out: GR Binding ratio (%)
Task for the reader: assign each of the following compounds its reported inhibition at 10 µM.
Answer with a number only, understood to be in %.

Request: inhibition at 10 µM, test system Glucocorticoid Receptor (GR) (Homo sapiens), entry COc1cc(OC(=O)c2cccnc2)ccc1-c1ccc2c(c1COc1cc([N+](=O)[O-])ccc1C)C(C)=CC(C)(C)N2 100

Ok, now COc1cc(OC(=O)c2ccco2)ccc1-c1ccc2c(c1COc1cc(F)ccc1C)C(C)=CC(C)(C)N2 100

Ok, now COc1cc(OC(=O)c2cccs2)ccc1-c1ccc2c(c1COc1cc(F)ccc1C)C(C)=CC(C)(C)N2 100

Ok, now COc1cc(OC(=O)c2ccccc2Cl)ccc1-c1ccc2c(c1COc1cc(F)ccc1C)C(C)=CC(C)(C)N2 100

Ok, now COc1ccc([N+](=O)[O-])cc1OCc1c(-c2ccc(OC(=O)c3cccnc3C)cc2OC)ccc2c1C(C)=CC(C)(C)N2 99

Ok, now COc1cc(OS(=O)(=O)CC(C)C)ccc1-c1ccc2c(c1COc1cc(F)ccc1C)C(C)=CC(C)(C)N2 100

Ok, now COc1cc(OC(=O)N2CCOCC2)ccc1-c1ccc2c(c1COc1cc([N+](=O)[O-])ccc1C)C(C)=CC(C)(C)N2 100

Ok, now COc1cc(OC(=O)c2ccccn2)ccc1-c1ccc2c(c1COc1cc(F)ccc1C)C(C)=CC(C)(C)N2 100

Ok, now COc1cc(OS(=O)(=O)C(C)C)ccc1-c1ccc2c(c1COc1cc([N+](=O)[O-])ccc1C)C(C)=CC(C)(C)N2 100

Ok, now COc1cc(OS(=O)(=O)CCC(F)(F)F)ccc1-c1ccc2c(c1COc1cc(F)ccc1C)C(C)=CC(C)(C)N2 100

Ok, now COc1cc(OC(=O)Nc2ccc(C#N)cc2)ccc1-c1ccc2c(c1COc1cc(F)ccc1C)C(C)=CC(C)(C)N2 90

Ok, now COc1cc(OC(=O)c2ccccc2F)ccc1-c1ccc2c(c1COc1cc(F)ccc1C)C(C)=CC(C)(C)N2 100

Ok, now COc1cc(OC(=O)NC(C)C)ccc1-c1ccc2c(c1COc1cc(F)ccc1C)C(C)=CC(C)(C)N2 92

Ok, now COc1ccc(OC(=O)c2ccncc2)cc1-c1ccc2c(c1COc1cc(F)ccc1C)C(C)=CC(C)(C)N2 95

Ok, now COc1ccc(NC(=O)Oc2ccc(-c3ccc4c(c3COc3cc(F)ccc3C)C(C)=CC(C)(C)N4)c(OC)c2)cc1 100

* * *

Task for the reader: assign each of the following molecules its reported inhibition at 10 µM.
# Assay Target: Glucocorticoid Receptor (GR) (Homo sapiens)
# Construct: purchased Invitrogen P2816
# Experiment Summary: GR receptor competitor assay by fluorescence polarization (Invitrogen GR competitor assay kit, cat No. P2816)
# Test Settings: 20 μM test compound solution, 10 μL per well plus 5 μL 4×GS1 and 5 μL 4×GR solution; recombinant human GR; 2 to 4 hours at room temperature; a ratio of 100% or more is indicated by 100%; read-out: GR Binding ratio (%)

Request: inhibition at 10 µM, test system Glucocorticoid Receptor (GR) (Homo sapiens), entry COc1ccccc1C(=O)Oc1ccc(-c2ccc3c(c2COc2cc([N+](=O)[O-])ccc2C)C(C)=CC(C)(C)N3)c(OC)c1 92%

Ok, now C=CC(=O)Oc1ccc(-c2ccc3c(c2COc2cc(F)ccc2C)C(C)=CC(C)(C)N3)c(OC)c1 100%

Ok, now COc1ccc([N+](=O)[O-])cc1OCc1c(-c2ccc(OS(=O)(=O)C(C)C)cc2OC)ccc2c1C(C)=CC(C)(C)N2 100%

Ok, now COc1cc(OC(=O)c2cccnc2C)ccc1-c1ccc2c(c1COc1cc(F)ccc1C)C(C)=CC(C)(C)N2 100%

Ok, now COc1cc(OC(=O)Nc2ccccc2Cl)ccc1-c1ccc2c(c1COc1cc(F)ccc1C)C(C)=CC(C)(C)N2 98%

Ok, now COc1cc(OC(=O)c2ccncc2)ccc1-c1ccc2c(c1COc1cc(F)ccc1C)C(C)=CC(C)(C)N2 100%

Ok, now CCS(=O)(=O)Oc1ccc(-c2ccc3c(c2COc2cc(F)ccc2C)C(C)=CC(C)(C)N3)c(OC)c1 92%

Ok, now CCS(=O)(=O)Oc1ccc(-c2ccc3c(c2COc2cc([N+](=O)[O-])ccc2C)C(C)=CC(C)(C)N3)c(OC)c1 100%

Ok, now COc1cc(OC(=O)c2ccc(C(C)=O)cc2)ccc1-c1ccc2c(c1COc1cc(F)ccc1C)C(C)=CC(C)(C)N2 100%

Ok, now COc1cc(OS(=O)(=O)C2CC2)ccc1-c1ccc2c(c1COc1cc(F)ccc1C)C(C)=CC(C)(C)N2 100%

Ok, now CCCCS(=O)(=O)Oc1ccc(-c2ccc3c(c2COc2cc(F)ccc2C)C(C)=CC(C)(C)N3)c(OC)c1 90%

Ok, now COc1cc(OC(=O)C(C)C)ccc1-c1ccc2c(c1COc1cc(F)ccc1C)C(C)=CC(C)(C)N2 100%

Ok, now COc1cc(OS(=O)(=O)C2CCCC2)ccc1-c1ccc2c(c1COc1cc(F)ccc1C)C(C)=CC(C)(C)N2 100%

Ok, now COc1cc(OC(=O)c2cccc(C(C)=O)c2)ccc1-c1ccc2c(c1COc1cc(F)ccc1C)C(C)=CC(C)(C)N2 100%

* * *

# Assay Target: Glucocorticoid Receptor (GR) (Homo sapiens, UniProt P04150)
# Construct: purchased Invitrogen P2816
# Sequence (P04150 whole entry): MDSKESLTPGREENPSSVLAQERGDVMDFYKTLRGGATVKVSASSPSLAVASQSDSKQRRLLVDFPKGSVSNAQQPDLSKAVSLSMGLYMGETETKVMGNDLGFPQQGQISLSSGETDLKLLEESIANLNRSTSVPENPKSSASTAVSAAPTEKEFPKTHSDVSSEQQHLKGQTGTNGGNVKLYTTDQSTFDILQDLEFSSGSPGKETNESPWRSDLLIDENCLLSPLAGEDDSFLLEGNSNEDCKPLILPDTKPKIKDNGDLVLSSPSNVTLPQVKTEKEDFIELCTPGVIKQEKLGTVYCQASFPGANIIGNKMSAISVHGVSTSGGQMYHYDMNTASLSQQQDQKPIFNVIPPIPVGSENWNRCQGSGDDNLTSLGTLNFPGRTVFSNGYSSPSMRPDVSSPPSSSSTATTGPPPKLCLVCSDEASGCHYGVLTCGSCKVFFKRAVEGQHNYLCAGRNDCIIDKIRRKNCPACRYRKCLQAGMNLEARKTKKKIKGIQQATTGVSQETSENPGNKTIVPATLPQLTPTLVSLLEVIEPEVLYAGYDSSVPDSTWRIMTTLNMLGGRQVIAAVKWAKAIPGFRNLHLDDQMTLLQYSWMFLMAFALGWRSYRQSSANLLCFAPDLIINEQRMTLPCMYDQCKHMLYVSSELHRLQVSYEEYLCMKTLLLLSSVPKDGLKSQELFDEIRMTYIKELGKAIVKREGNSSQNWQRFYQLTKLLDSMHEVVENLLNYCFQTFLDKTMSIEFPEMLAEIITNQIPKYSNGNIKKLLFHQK
# Experiment Summary: GR receptor competitor assay by fluorescence polarization (Invitrogen GR competitor assay kit, cat No. P2816)
# Test Settings: 20 μM test compound solution, 10 μL per well plus 5 μL 4×GS1 and 5 μL 4×GR solution; recombinant human GR; 2 to 4 hours at room temperature; a ratio of 100% or more is indicated by 100%; read-out: GR Binding ratio (%)
Where a name gives a salt, the structure may show the parent alone.
Property Measured: inhibition at 10 µM (%)
Answer with a number only, understood to be in %.

Request: inhibition at 10 µM, test system Glucocorticoid Receptor (GR) (Homo sapiens, UniProt P04150), entry COc1cc(OC(=O)c2ccccc2SC)ccc1-c1ccc2c(c1COc1cc(F)ccc1C)C(C)=CC(C)(C)N2 96

Ok, now COc1cc(OC(=O)CN)ccc1-c1ccc2c(c1COc1cc(F)ccc1C)C(C)=CC(C)(C)N2 [Compound 3-1, monohydrochloride] 100

Ok, now COc1cc(OC(=O)Cc2ccccc2)ccc1-c1ccc2c(c1COc1cc(F)ccc1C)C(C)=CC(C)(C)N2 100

Ok, now COc1cc(OC(=O)c2cccnc2OC)ccc1-c1ccc2c(c1COc1cc(F)ccc1C)C(C)=CC(C)(C)N2 100

Ok, now COc1cc(OC(=O)c2ccc([N+](=O)[O-])cc2)ccc1-c1ccc2c(c1COc1cc(F)ccc1C)C(C)=CC(C)(C)N2 100

Ok, now COc1ccc([N+](=O)[O-])cc1OCc1c(-c2ccc(OC(=O)c3ccsc3)cc2OC)ccc2c1C(C)=CC(C)(C)N2 97

Ok, now CCC(=O)Oc1ccc(-c2ccc3c(c2COc2cc(F)ccc2C)C(C)=CC(C)(C)N3)c(OC)c1 100

* * *

# Assay Target: Glucocorticoid Receptor (GR) (Homo sapiens)
# Construct: purchased Invitrogen P2816
# Experiment Summary: GR receptor competitor assay by fluorescence polarization (Invitrogen GR competitor assay kit, cat No. P2816)
# Test Settings: 20 μM test compound solution, 10 μL per well plus 5 μL 4×GS1 and 5 μL 4×GR solution; recombinant human GR; 2 to 4 hours at room temperature; a ratio of 100% or more is indicated by 100%; read-out: GR Binding ratio (%)
Task for the reader: assign each of the following compounds its reported inhibition at 10 µM.
Answer with a number only, understood to be in %.

# lookup: inhibition at 10 µM of COc1cc(OC(=O)C(C)(C)C)ccc1-c1ccc2c(c1COc1cc(F)ccc1C)C(C)=CC(C)(C)N2 98

Ok, now COc1cc(OC(=O)c2cscn2)ccc1-c1ccc2c(c1COc1cc(F)ccc1C)C(C)=CC(C)(C)N2 100

Ok, now COc1cccc(C(=O)Oc2ccc(-c3ccc4c(c3COc3cc(F)ccc3C)C(C)=CC(C)(C)N4)c(OC)c2)c1 100

Ok, now COc1ccc(C(=O)Oc2ccc(-c3ccc4c(c3COc3cc(F)ccc3C)C(C)=CC(C)(C)N4)c(OC)c2)cc1 100

Ok, now CCC(=O)Oc1ccc(OC)c(-c2ccc3c(c2COc2cc(F)ccc2C)C(C)=CC(C)(C)N3)c1 84

Ok, now COc1ccccc1OC(=O)Oc1ccc(-c2ccc3c(c2COc2cc(F)ccc2C)C(C)=CC(C)(C)N3)c(OC)c1 93

Ok, now COc1cc(OC(=O)c2cocn2)ccc1-c1ccc2c(c1COc1cc(F)ccc1C)C(C)=CC(C)(C)N2 100

Ok, now COC(=O)c1cccc(C(=O)Oc2ccc(-c3ccc4c(c3COc3cc(F)ccc3C)C(C)=CC(C)(C)N4)c(OC)c2)c1 100

Ok, now COc1cc(OC(=O)CNC(=O)OC(C)(C)C)ccc1-c1ccc2c(c1COc1cc(F)ccc1C)C(C)=CC(C)(C)N2 100

Ok, now COC(=O)c1ccc(NC(=O)Oc2ccc(-c3ccc4c(c3COc3cc(F)ccc3C)C(C)=CC(C)(C)N4)c(OC)c2)cc1 88

Ok, now COc1cccc(NC(=O)Oc2ccc(-c3ccc4c(c3COc3cc(F)ccc3C)C(C)=CC(C)(C)N4)c(OC)c2)c1 98

Ok, now COc1cc(OC(=O)c2ccc(C)nc2)ccc1-c1ccc2c(c1COc1cc(F)ccc1C)C(C)=CC(C)(C)N2 100

Ok, now COc1cc(OC(=O)Cc2cccnc2)ccc1-c1ccc2c(c1COc1cc(F)ccc1C)C(C)=CC(C)(C)N2 100

Ok, now COc1cc(OC(=O)C2CCN(C(=O)OC(C)(C)C)CC2)ccc1-c1ccc2c(c1COc1cc(F)ccc1C)C(C)=CC(C)(C)N2 91
